Reference source for all entries: patent US5440016A

Biological target: melittin (Apis mellifera, UniProt P01501)
Sequence (P01501 44-69 limits assumed): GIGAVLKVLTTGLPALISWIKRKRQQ
Assay: cell-based
Details: read-out: IC50, inhibition of melittin (converted)
Ends that are not written are not given here.
Class boundaries, taken from values of IC50, are as follows: class 0 = under 30 µM, class 1 = from 30 µM up to 60 µM, class 2 = 60 µM and over

Before answering, review these 4 worked examples.
In [3]: df
Out[3]:
                       substance    group
0  Ac-IVILLV-NH2 [Ac-IVILLV-NH2]  class 2
1  Ac-IVIFFC-NH2 [Ac-IVIFFC-NH2]  class 2
2  Ac-MILWIE-NH2 [Ac-MILWIE-NH2]  class 0
3  Ac-IVIFFS-NH2 [Ac-IVIFFS-NH2]  class 0

Just checking, what class would you give Ac-IVILLT-NH2 [Ac-IVILLT-NH2] here?
class 0

One more substance: Ac-IVILTT-NH2 [Ac-IVILTT-NH2]
class 2

One more substance: Ac-IVILTG-NH2 [Ac-IVILTG-NH2]
class 1

One more substance: Ac-IVILTE-NH2 [Ac-IVILTE-NH2]
class 1

One more substance: Ac-FDIWFE-NH2 [Ac-FDIWFE-NH2]
class 2

One more substance: NEEIVI-NH2 [NEEIVI-NH2]
class 2

One more substance: Ac-IVILLW-NH2 [Ac-IVILLW-NH2]
class 0

One more substance: Ac-IVIFFP-NH2 [Ac-IVIFFP-NH2]
class 1

One more substance: Ac-FQIWFE-NH2 [Ac-FQIWFE-NH2]
class 0

One more substance: Ac-IVILTI-NH2 [Ac-IVILTI-NH2]
class 2
